TEST_SUMMARY: Quantitative High-Throughput drug screen in 47 multiple myeloma cell lines against the NCATS MIPE library collection: Karpas417_ECACC cell viability assay (AID 1918961); further: potency means the concentration at half of the fitted maximal effect
ASSAY_CONTEXT: Karpas417 myeloma viability, CellTiter-Glo ATP luminescence, 48 h
Results filed as inconclusive are left out. The source made the active and inactive calls. The call rests on the fitted dose curve; in most records, active means well fitted cell-killing curve with a large enough effect; inconclusive means small, poorly fitted or top-dose-only effect, or effect the other way; inactive means no such curve, though single readings can be large or run the other way.
PROPERTY: Potency

Worked cases, answers included:
# COMPOUND, PROPERTY, RESULT
rows = [
    ("CCOC(CN1C(=O)[C@](CC(=O)Nc2ccc(C)cc2)(NC(=O)Nc2ccc(C)cc2)c2ccccc21)OCC", "Potency", "16.6 µM (active)"),
    ("Cc1[nH]c(C=C2C(=O)Nc3ccc(S(=O)(=O)Cc4c(Cl)cccc4Cl)cc32)c(C)c1C(=O)N1CCC[C@H]1CN1CCCC1", "Potency", "1.48 µM (active)"),
    ("O=C(NCc1ccccc1)c1csc(Nc2ccncn2)n1", "Potency", "10.5 µM (active)"),
    ("CS(=O)c1ccc(-c2nc(-c3ccc(F)cc3)c(-c3ccncc3)[nH]2)cc1 (configuration not stated)", "Potency", "3.82 µM (active)"),
    ("Cc1cnc(C(=O)O)c[n+]1[O-]", "Potency", "inactive"),
]

INPUT: Provide measured Potency value, entry: `C[C@]12CC[C@@H]3c4ccc(O)cc4CC[C@H]3[C@H]1C[C@@H](O)[C@H]2O`
OUTPUT: inactive

INPUT: Provide measured Potency value, entry: `Cc1c(O)cccc1C(=O)N[C@@H](CSc1ccccc1)[C@H](O)CN1C[C@H]2CCCC[C@@H]2C[C@@H]1C(=O)NC(C)(C)C`
OUTPUT: 14.8 µM (active)

INPUT: Provide measured Potency value, entry: `CC(=Cc1ccccc1)C=C1SC(=S)N(CC(=O)O)C1=O`
OUTPUT: inactive

INPUT: Provide measured Potency value, entry: NC1CCC(Nc2nc(Nc3ccc(C(=O)N4CCCCC4)cc3)c3ncn(-c4cccc(F)c4)c3n2)CC1 (configuration not stated)
OUTPUT: inactive

INPUT: Provide measured Potency value, entry: `CON=C(C(=O)N[C@@H]1C(=O)N2C(C(=O)OCOC(=O)C(C)(C)C)=C(C=Cc3scnc3C)CS[C@H]12)c1csc(N)n1`
OUTPUT: 20.9 µM (active)

INPUT: Provide measured Potency value, entry: `CN(C)c1cc(NC(=O)CNC(C)(C)C)c(O)c2c1C[C@@H]1C[C@H]3[C@H](N(C)C)C(=O)C(C(N)=O)=C(O)[C@@]3(O)C(=O)C1=C2O`
OUTPUT: inactive

INPUT: Provide measured Potency value, entry: `O=C1NC(=O)C(=Cc2cccc(C(F)(F)F)c2)S1`
OUTPUT: 26.4 µM (active)

INPUT: Provide measured Potency value, entry: `O=C1c2ccccc2-[n+]2ccc3c([nH]c4ccccc43)c21`
OUTPUT: 8.33 µM (active)

INPUT: Provide measured Potency value, entry: `C[C@@H]1CCN(C(=O)CC#N)C[C@H]1N(C)c1ncnc2[nH]ccc12`
OUTPUT: inactive

INPUT: Provide measured Potency value, entry: `Nc1nc(F)nc2c1ncn2[C@@H]1O[C@H](COP(=O)(O)O)[C@@H](O)[C@H]1O`
OUTPUT: 4.18 µM (active)

INPUT: Provide measured Potency value, entry: `Clc1ccc(-c2nc3sccn3c2C=NOCc2ccc(Cl)c(Cl)c2)cc1`
OUTPUT: inactive

INPUT: Provide measured Potency value, entry: `O=C1NC(=O)C(=Cc2ccc(-c3ccc(F)cc3)o2)S1`
OUTPUT: 1.66 µM (active)

INPUT: Provide measured Potency value, entry: `CC(C)(C)C(=O)Oc1ccc2c(c1)nc(NC(=O)c1cccc([N+](=O)[O-])c1)n2CCCO`
OUTPUT: inactive

Measured values drawn from PubChem BioAssay (NCATS) for this set.
